Consider the following compounds and their measured max response readings.
- assayed target: Peroxisome proliferator-activated receptor alpha (Homo sapiens) (UniProt Q07869)
- Sequence (Q07869 whole entry, looked up): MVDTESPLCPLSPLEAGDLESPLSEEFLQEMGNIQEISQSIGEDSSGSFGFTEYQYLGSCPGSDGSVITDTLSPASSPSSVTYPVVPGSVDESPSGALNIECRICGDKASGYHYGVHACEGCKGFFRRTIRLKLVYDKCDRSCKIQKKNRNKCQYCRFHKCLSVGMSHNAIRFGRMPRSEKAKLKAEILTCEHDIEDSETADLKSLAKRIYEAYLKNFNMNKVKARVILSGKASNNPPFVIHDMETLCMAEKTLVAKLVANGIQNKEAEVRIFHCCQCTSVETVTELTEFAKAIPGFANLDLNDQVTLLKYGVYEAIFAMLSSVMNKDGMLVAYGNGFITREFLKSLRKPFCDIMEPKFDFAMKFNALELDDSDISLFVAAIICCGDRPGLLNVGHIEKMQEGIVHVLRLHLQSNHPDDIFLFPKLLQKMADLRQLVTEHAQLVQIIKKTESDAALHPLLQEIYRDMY
- assay explanation: qHTS assay for small molecule agonists of the peroxisome proliferator-activated receptor alpha (PPARalpha) signaling pathway (AID 651778); further: % of control where 0% means no effect
- settings: PathHunter PPARalpha complementation, chemiluminescence, 6 h; hits give high values

{"compound": "Cc1coc2c1CCC(C)C2 (centres undefined)", "max response [%]": 9.95}
{"compound": "OCCCCO", "max response [%]": -0.393}
{"compound": "BrCC(Br)C1CCC(Br)C(Br)C1 (centres undefined)", "max response [%]": 4.79}
{"compound": "C=CCOCC1CO1 (centres undefined)", "max response [%]": 11.4}
{"compound": "O=[N+]([O-])c1cc(Cl)c(Cl)cc1Cl", "max response [%]": -8.71}
{"compound": "CC1CC(=O)O1 (centres undefined)", "max response [%]": -0.51}
{"compound": "Cl/C=C/CCl", "max response [%]": -3.36}
{"compound": "CC(C)(Cl)Cl", "max response [%]": -2.59}
{"compound": "CC(Cl)CCl (centres undefined)", "max response [%]": -4.11}

---

- assayed target: Voltage-gated inwardly rectifying potassium channel KCNH2 (Homo sapiens) (UniProt Q12809)
- Sequence (Q12809 whole entry, looked up): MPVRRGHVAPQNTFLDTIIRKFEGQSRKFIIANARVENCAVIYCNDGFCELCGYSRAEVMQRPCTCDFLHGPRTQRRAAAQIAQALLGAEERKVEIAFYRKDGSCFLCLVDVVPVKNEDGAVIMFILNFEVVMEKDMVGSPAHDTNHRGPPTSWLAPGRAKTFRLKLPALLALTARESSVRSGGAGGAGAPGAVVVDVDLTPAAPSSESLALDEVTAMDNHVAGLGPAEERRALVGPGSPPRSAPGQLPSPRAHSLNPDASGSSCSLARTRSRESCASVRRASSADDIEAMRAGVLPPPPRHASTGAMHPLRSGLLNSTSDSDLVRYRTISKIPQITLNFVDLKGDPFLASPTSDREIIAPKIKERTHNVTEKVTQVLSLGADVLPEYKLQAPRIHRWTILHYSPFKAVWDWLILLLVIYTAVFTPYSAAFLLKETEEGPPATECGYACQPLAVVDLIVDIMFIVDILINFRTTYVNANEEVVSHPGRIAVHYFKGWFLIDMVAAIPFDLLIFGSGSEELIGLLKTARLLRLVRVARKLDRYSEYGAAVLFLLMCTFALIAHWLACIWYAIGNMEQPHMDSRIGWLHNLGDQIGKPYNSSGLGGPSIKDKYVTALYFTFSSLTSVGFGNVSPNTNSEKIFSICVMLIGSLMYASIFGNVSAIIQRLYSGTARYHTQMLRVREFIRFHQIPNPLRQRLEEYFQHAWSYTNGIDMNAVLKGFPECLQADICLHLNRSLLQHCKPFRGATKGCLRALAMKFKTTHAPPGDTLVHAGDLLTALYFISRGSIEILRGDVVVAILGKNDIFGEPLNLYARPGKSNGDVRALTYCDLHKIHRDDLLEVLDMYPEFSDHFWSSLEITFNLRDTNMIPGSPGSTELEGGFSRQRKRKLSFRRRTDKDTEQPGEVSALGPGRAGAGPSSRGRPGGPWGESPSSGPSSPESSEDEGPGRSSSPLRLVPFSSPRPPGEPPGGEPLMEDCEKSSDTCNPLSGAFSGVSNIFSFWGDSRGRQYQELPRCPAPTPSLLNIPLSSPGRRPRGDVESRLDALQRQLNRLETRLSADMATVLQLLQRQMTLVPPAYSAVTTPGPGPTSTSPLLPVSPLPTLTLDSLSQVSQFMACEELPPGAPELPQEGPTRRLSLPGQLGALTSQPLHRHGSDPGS
- assay explanation: qHTS Assay for Small Molecule Inhibitors of the Human hERG Channel Activity (AID 588834);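 further: lower thallium flux fluorescence means stronger hERG block; nearly all actives have a fitted effect of over 50% in size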
- settings: U2OS BacMam hERG, FluxOR thallium flux fluorescence; series mostly up to 92.2 µM
Inconclusive results are not listed. Active and inactive are the calls of the source. The call rests on the fitted dose curve; in most records, active means well fitted inhibition curve with a large enough effect; inconclusive means small, poorly fitted or top-dose-only effect; inactive means flat fitted curve, though single readings scatter.
Possible outcomes: T for active, F for inactive

{"compound": "BrCCc1ccccc1", "assayed target": "Voltage-gated inwardly rectifying potassium channel KCNH2 (Homo sapiens) (UniProt Q12809)", "classification": "F"}
{"compound": "Nc1ccc2ccccc2c1", "assayed target": "Voltage-gated inwardly rectifying potassium channel KCNH2 (Homo sapiens) (UniProt Q12809)", "classification": "F"}
{"compound": "CCSC(=O)N1CCCCCC1", "assayed target": "Voltage-gated inwardly rectifying potassium channel KCNH2 (Homo sapiens) (UniProt Q12809)", "classification": "F"}
{"compound": "Brc1cccc(-c2ccccc2)c1", "assayed target": "Voltage-gated inwardly rectifying potassium channel KCNH2 (Homo sapiens) (UniProt Q12809)", "classification": "T"}
{"compound": "S=C1NCCN1", "assayed target": "Voltage-gated inwardly rectifying potassium channel KCNH2 (Homo sapiens) (UniProt Q12809)", "classification": "F"}
{"compound": "ClC(Cl)C(Cl)Cl", "assayed target": "Voltage-gated inwardly rectifying potassium channel KCNH2 (Homo sapiens) (UniProt Q12809)", "classification": "F"}
{"compound": "Cc1cccc(C)c1N", "assayed target": "Voltage-gated inwardly rectifying potassium channel KCNH2 (Homo sapiens) (UniProt Q12809)", "classification": "F"}
{"compound": "Nc1c(Cl)cc([N+](=O)[O-])cc1Cl", "assayed target": "Voltage-gated inwardly rectifying potassium channel KCNH2 (Homo sapiens) (UniProt Q12809)", "classification": "F"}
{"compound": "C/C=C/CC#N", "assayed target": "Voltage-gated inwardly rectifying potassium channel KCNH2 (Homo sapiens) (UniProt Q12809)", "classification": "F"}
{"compound": "CC(C)OC(=O)Cc1ccccc1", "assayed target": "Voltage-gated inwardly rectifying potassium channel KCNH2 (Homo sapiens) (UniProt Q12809)", "classification": "F"}
{"compound": "CN(C)c1ccccc1", "assayed target": "Voltage-gated inwardly rectifying potassium channel KCNH2 (Homo sapiens) (UniProt Q12809)", "classification": "F"}
{"compound": "BrCC(Br)(Br)Br", "assayed target": "Voltage-gated inwardly rectifying potassium channel KCNH2 (Homo sapiens) (UniProt Q12809)", "classification": "F"}
{"compound": "O=C(O)c1cccc(Cl)c1", "assayed target": "Voltage-gated inwardly rectifying potassium channel KCNH2 (Homo sapiens) (UniProt Q12809)", "classification": "F"}
{"compound": "O=C(Cl)OCc1ccccc1", "assayed target": "Voltage-gated inwardly rectifying potassium channel KCNH2 (Homo sapiens) (UniProt Q12809)", "classification": "F"}
{"compound": "O=[N+]([O-])c1cc(Cl)c(Cl)c(Cl)c1", "assayed target": "Voltage-gated inwardly rectifying potassium channel KCNH2 (Homo sapiens) (UniProt Q12809)", "classification": "F"}
{"compound": "N#CC(Br)Br", "assayed target": "Voltage-gated inwardly rectifying potassium channel KCNH2 (Homo sapiens) (UniProt Q12809)", "classification": "F"}
{"compound": "N#CCBr", "assayed target": "Voltage-gated inwardly rectifying potassium channel KCNH2 (Homo sapiens) (UniProt Q12809)", "classification": "F"}
{"compound": "CCNCC", "assayed target": "Voltage-gated inwardly rectifying potassium channel KCNH2 (Homo sapiens) (UniProt Q12809)", "classification": "F"}
{"compound": "O=[N+]([O-])c1ccc(Cl)cc1", "assayed target": "Voltage-gated inwardly rectifying potassium channel KCNH2 (Homo sapiens) (UniProt Q12809)", "classification": "F"}
{"compound": "CSSC", "assayed target": "Voltage-gated inwardly rectifying potassium channel KCNH2 (Homo sapiens) (UniProt Q12809)", "classification": "F"}
{"compound": "CC(C#N)CCC#N (stereo not given)", "assayed target": "Voltage-gated inwardly rectifying potassium channel KCNH2 (Homo sapiens) (UniProt Q12809)", "classification": "F"}
{"compound": "O=C(O)CCl", "assayed target": "Voltage-gated inwardly rectifying potassium channel KCNH2 (Homo sapiens) (UniProt Q12809)", "classification": "F"}
{"compound": "Nc1ccc(-c2ccccc2)cc1", "assayed target": "Voltage-gated inwardly rectifying potassium channel KCNH2 (Homo sapiens) (UniProt Q12809)", "classification": "F"}
{"compound": "CCC[N+](=O)[O-]", "assayed target": "Voltage-gated inwardly rectifying potassium channel KCNH2 (Homo sapiens) (UniProt Q12809)", "classification": "F"}
{"compound": "O=C(O)C(Cl)Br (stereo not given)", "assayed target": "Voltage-gated inwardly rectifying potassium channel KCNH2 (Homo sapiens) (UniProt Q12809)", "classification": "F"}
{"compound": "Nn1cnnc1", "assayed target": "Voltage-gated inwardly rectifying potassium channel KCNH2 (Homo sapiens) (UniProt Q12809)", "classification": "F"}
{"compound": "O=[N+]([O-])c1ccc(Cl)c(Cl)c1Cl", "assayed target": "Voltage-gated inwardly rectifying potassium channel KCNH2 (Homo sapiens) (UniProt Q12809)", "classification": "F"}
{"compound": "CCN(CC)N=O", "assayed target": "Voltage-gated inwardly rectifying potassium channel KCNH2 (Homo sapiens) (UniProt Q12809)", "classification": "F"}
{"compound": "CCCCC(CC)COC(=O)c1ccc(C(=O)OCC(CC)CCCC)c(C(=O)OCC(CC)CCCC)c1 (stereo not given)", "assayed target": "Voltage-gated inwardly rectifying potassium channel KCNH2 (Homo sapiens) (UniProt Q12809)", "classification": "F"}
{"compound": "C=CCc1cc(OC)c2c(c1)OCO2", "assayed target": "Voltage-gated inwardly rectifying potassium channel KCNH2 (Homo sapiens) (UniProt Q12809)", "classification": "F"}
{"compound": "CC(C)[N+](=O)[O-]", "assayed target": "Voltage-gated inwardly rectifying potassium channel KCNH2 (Homo sapiens) (UniProt Q12809)", "classification": "F"}
{"compound": "Nc1ccc([N+](=O)[O-])cc1[N+](=O)[O-]", "assayed target": "Voltage-gated inwardly rectifying potassium channel KCNH2 (Homo sapiens) (UniProt Q12809)", "classification": "F"}
{"compound": "Clc1ccc(C(Cl)(Cl)Cl)cc1Cl", "assayed target": "Voltage-gated inwardly rectifying potassium channel KCNH2 (Homo sapiens) (UniProt Q12809)", "classification": "T"}
{"compound": "Cc1cccc(N)c1C", "assayed target": "Voltage-gated inwardly rectifying potassium channel KCNH2 (Homo sapiens) (UniProt Q12809)", "classification": "F"}
{"compound": "c1ccc(OCC2CO2)cc1 (stereo not given)", "assayed target": "Voltage-gated inwardly rectifying potassium channel KCNH2 (Homo sapiens) (UniProt Q12809)", "classification": "F"}
{"compound": "c1ccc(N=NNc2ccccc2)cc1", "assayed target": "Voltage-gated inwardly rectifying potassium channel KCNH2 (Homo sapiens) (UniProt Q12809)", "classification": "T"}
{"compound": "CN(C)C(=O)Nc1cccc(C(F)(F)F)c1", "assayed target": "Voltage-gated inwardly rectifying potassium channel KCNH2 (Homo sapiens) (UniProt Q12809)", "classification": "F"}
{"compound": "O=[N+]([O-])/C=C/c1ccccc1", "assayed target": "Voltage-gated inwardly rectifying potassium channel KCNH2 (Homo sapiens) (UniProt Q12809)", "classification": "F"}
{"compound": "O=C(Cl)c1ccccc1F", "assayed target": "Voltage-gated inwardly rectifying potassium channel KCNH2 (Homo sapiens) (UniProt Q12809)", "classification": "F"}
{"compound": "[O-][Cl+2]([O-])O", "assayed target": "Voltage-gated inwardly rectifying potassium channel KCNH2 (Homo sapiens) (UniProt Q12809)", "classification": "F"}
{"compound": "Cc1cc(-c2cc(C)c(N)c(C)c2)cc(C)c1N", "assayed target": "Voltage-gated inwardly rectifying potassium channel KCNH2 (Homo sapiens) (UniProt Q12809)", "classification": "F"}
{"compound": "Cc1ccc([N+](=O)[O-])cc1", "assayed target": "Voltage-gated inwardly rectifying potassium channel KCNH2 (Homo sapiens) (UniProt Q12809)", "classification": "F"}
{"compound": "[C-]1=CC=CC1.[C-]1=CC=CC1.[Cl-].[Cl-].[Ti+4]", "assayed target": "Voltage-gated inwardly rectifying potassium channel KCNH2 (Homo sapiens) (UniProt Q12809)", "classification": "F"}
{"compound": "Nc1ccc(-c2ccc(N)c(Cl)c2)cc1Cl", "assayed target": "Voltage-gated inwardly rectifying potassium channel KCNH2 (Homo sapiens) (UniProt Q12809)", "classification": "F"}
{"compound": "Cc1cc(N=Nc2ccccc2C)ccc1N", "assayed target": "Voltage-gated inwardly rectifying potassium channel KCNH2 (Homo sapiens) (UniProt Q12809)", "classification": "F"}
{"compound": "Cc1coc2c1CCC(C)C2 (stereo not given)", "assayed target": "Voltage-gated inwardly rectifying potassium channel KCNH2 (Homo sapiens) (UniProt Q12809)", "classification": "F"}
{"compound": "CN(C)C(=O)Cl", "assayed target": "Voltage-gated inwardly rectifying potassium channel KCNH2 (Homo sapiens) (UniProt Q12809)", "classification": "F"}
{"compound": "Nc1cc(Cl)ccc1O", "assayed target": "Voltage-gated inwardly rectifying potassium channel KCNH2 (Homo sapiens) (UniProt Q12809)", "classification": "F"}
{"compound": "Nc1cc(Cl)cc(Cl)c1", "assayed target": "Voltage-gated inwardly rectifying potassium channel KCNH2 (Homo sapiens) (UniProt Q12809)", "classification": "F"}
{"compound": "[N-]=[N+]=[N-]", "assayed target": "Voltage-gated inwardly rectifying potassium channel KCNH2 (Homo sapiens) (UniProt Q12809)", "classification": "F"}
